The measured values listed here are drawn from ChEMBL document CHEMBL5370550.

# TESTED SYSTEM: Replicase polyprotein 1ab (Severe acute respiratory syndrome coronavirus 2) (UniProt P0DTD1)
# RUN CONDITIONS: dose 5.0 µM, time 30.0 min, values are per cent of control
ASSAY ENDPOINT: residual activity (%)
Numbers only; they are read as %.

So what's the measured residual activity for this one? COc1ccc(S(=O)(=O)N(C)C[C@H]2O[C@@H](n3cc(C#Cc4ccccc4)c4c(N)ncnc43)[C@H](O)[C@@H]2O)cc1C#N 2.4

So what's the measured residual activity for this one? Cc1ccc(S(=O)(=O)N(C)C[C@H]2O[C@@H](n3cc(C#Cc4ccccc4)c4c(N)ncnc43)[C@H](O)[C@@H]2O)cc1[N+](=O)[O-] 1

So what's the measured residual activity for this one? Cc1ccc(S(=O)(=O)N(C)C[C@H]2O[C@@H](n3cc(C#Cc4cnc5ccccc5c4)c4c(N)ncnc43)[C@H](O)[C@@H]2O)cc1[N+](=O)[O-] 4.2

So what's the measured residual activity for this one? COc1ccc(S(=O)(=O)NC[C@H]2O[C@@H](n3cnc4c(=O)[nH]cnc43)[C@H](O)[C@@H]2O)cc1[N+](=O)[O-] 93.6

So what's the measured residual activity for this one? CCN(C[C@H]1O[C@@H](n2cnc3c(=O)[nH]cnc32)[C@H](O)[C@@H]1O)S(=O)(=O)c1ccc(OC)c(C#N)c1 30.7

So what's the measured residual activity for this one? COc1ccc(S(=O)(=O)N(C)C[C@H]2O[C@@H](n3cc(C#Cc4ccccc4)c4c(N)ncnc43)[C@H](O)[C@@H]2O)cc1[N+](=O)[O-] 0

So what's the measured residual activity for this one? Cc1ccc(S(=O)(=O)N(C)C[C@H]2O[C@@H](n3cc(C#Cc4cnc5ccccc5c4)c4c(N)ncnc43)[C@H](O)[C@@H]2O)cc1Cl 3.2

So what's the measured residual activity for this one? CCN(C[C@H]1O[C@@H](n2cnc3c(=O)[nH]cnc32)[C@H](O)[C@@H]1O)S(=O)(=O)c1ccc(Cl)c(C)c1 75.5

So what's the measured residual activity for this one? COc1ccc(S(=O)(=O)NC[C@H]2O[C@@H](n3cnc4c(=O)[nH]cnc43)[C@H](O)[C@@H]2O)cc1C#N 86

So what's the measured residual activity for this one? Cc1cc(S(=O)(=O)NC[C@H]2O[C@@H](n3cnc4c(=O)[nH]cnc43)[C@H](O)[C@@H]2O)ccc1Cl 87.6

So what's the measured residual activity for this one? CNc1ncnc2c1ncn2[C@@H]1O[C@H](CNS(=O)(=O)c2ccc(OC)c(C#N)c2)[C@@H](O)[C@H]1O 25.4

So what's the measured residual activity for this one? COc1ccc(S(=O)(=O)N(C)C[C@H]2O[C@@H](n3cc(C#Cc4cnc5ccccc5c4)c4c(N)ncnc43)[C@H](O)[C@@H]2O)cc1C#N 0

So what's the measured residual activity for this one? CNc1ncnc2c1ncn2[C@@H]1O[C@H](CNS(=O)(=O)c2ccc(C)c([N+](=O)[O-])c2)[C@@H](O)[C@H]1O 38.7

So what's the measured residual activity for this one? CCN(C[C@H]1O[C@@H](n2cnc3c(=O)[nH]cnc32)[C@H](O)[C@@H]1O)S(=O)(=O)c1ccc(OC)c([N+](=O)[O-])c1 56.4
